Target: CRM1^HA (Mus musculus, UniProt Q6P5F9, L431A/V430A/V432A)
Construct: His-ZZ (cleaved yes); made in house; host or cells: Escherichia coli BL21-CodonPlus (DE3)
Sequence (Q6P5F9 1-1062 V430A/L431A/V432A limits assumed): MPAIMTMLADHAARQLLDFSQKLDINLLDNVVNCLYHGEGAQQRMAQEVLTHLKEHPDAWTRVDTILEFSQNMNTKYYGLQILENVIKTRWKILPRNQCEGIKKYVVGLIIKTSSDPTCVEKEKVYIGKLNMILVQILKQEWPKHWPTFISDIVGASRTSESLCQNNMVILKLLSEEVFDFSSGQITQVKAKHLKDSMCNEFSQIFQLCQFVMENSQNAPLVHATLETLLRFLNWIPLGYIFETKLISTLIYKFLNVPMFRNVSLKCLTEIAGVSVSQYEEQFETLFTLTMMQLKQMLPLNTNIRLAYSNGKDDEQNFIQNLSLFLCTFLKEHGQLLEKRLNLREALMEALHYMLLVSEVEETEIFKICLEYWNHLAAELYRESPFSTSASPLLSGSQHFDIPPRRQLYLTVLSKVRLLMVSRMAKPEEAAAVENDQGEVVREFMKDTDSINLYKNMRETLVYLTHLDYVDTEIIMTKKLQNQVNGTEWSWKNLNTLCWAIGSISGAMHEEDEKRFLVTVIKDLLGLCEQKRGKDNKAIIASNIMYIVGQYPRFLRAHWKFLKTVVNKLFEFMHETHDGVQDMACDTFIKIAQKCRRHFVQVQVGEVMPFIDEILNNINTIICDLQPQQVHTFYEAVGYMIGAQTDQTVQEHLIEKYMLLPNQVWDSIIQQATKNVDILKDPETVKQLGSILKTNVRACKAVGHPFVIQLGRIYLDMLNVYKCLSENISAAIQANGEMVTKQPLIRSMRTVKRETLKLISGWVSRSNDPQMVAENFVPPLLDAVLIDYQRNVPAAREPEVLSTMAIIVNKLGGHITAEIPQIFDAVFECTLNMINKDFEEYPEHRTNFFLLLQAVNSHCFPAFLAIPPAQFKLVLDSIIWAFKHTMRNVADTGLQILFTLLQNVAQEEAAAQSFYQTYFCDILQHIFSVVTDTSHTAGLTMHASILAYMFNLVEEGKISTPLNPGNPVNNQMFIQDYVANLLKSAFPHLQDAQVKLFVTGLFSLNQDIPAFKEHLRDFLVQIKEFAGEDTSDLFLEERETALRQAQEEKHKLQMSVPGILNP
Experiment: Fluorescence anisotropy binding assay, CRM1^HA
Conditions: TFP-NES 50 nM, 0–60 μM CRM1^HA, 25°C, pH 7.4, rounded, read-out: apparent KD
pKd: −log10 of the molar value.
Listed below: pKd values for each entry.

{"Seq text": "DLWQSLAQVSLRK [TFP-mutE(NES), NES of NPM mutant E as C-terminal fusion to teal fluorescent protein]", "pKd": 5.66}
{"Seq text": "DLCLAVEEVSLRK [TFP-mutA(NES), NES of NPM mutant A as C-terminal fusion to teal fluorescent protein]", "pKd": 5.30}
